From: PubChem BioAssay AID2141

Target: E3 ubiquitin-protein ligase SIAH1 (Homo sapiens)
Test: inhibitors of Siah-1 ligand interaction – biochemical, TR-FRET, dose response (AID 2141)
Conditions: TR-FRET biochemical assay, Siah-1 binding
Calls of active or inactive are those of the source. How the calls were made is not given here.
Classes used: label 1 for active, label 0 for inactive

# CHEMICAL_SMILES, GROUP
rows = [
    ("O=S(=O)(Nc1c(S(=O)(=O)c2ccccc2)c2nc3ccccc3nc2n1C1CCCCC1)c1ccccc1", "label 1"),
    ("COc1cc(NS(=O)(=O)c2ccc(NC(=S)NC(=O)/C=C/c3ccc(F)cc3)cc2)ncn1", "label 0"),
    ("CCN(CC)CCOC(=O)c1ccc(N/C=C(/C#N)c2nc(-c3cc4ccccc4oc3=O)cs2)cc1", "label 0"),
]

* * *

Target: E3 ubiquitin-protein ligase SIAH1 (Homo sapiens) (UniProt Q8IUQ4)
Test: inhibitors of Siah-1 ligand interaction – biochemical, TR-FRET, dose response (AID 2141)
Conditions: TR-FRET biochemical assay, Siah-1 binding
The source made the active and inactive calls. How the calls were made is not given here.
Classes used: true (1) (active), false (0) (inactive)

# COMPOUND, GROUP
rows = [
    ("O=C(O)CCCNc1cc(N2CCN(C(=O)c3ccco3)CC2)c2noc3c2c1C(=O)c1ccccc1-3", "true (1)"),
    ("O=C(Nc1nc(-c2cc3ccccc3oc2=O)cs1)c1ccco1", "true (1)"),
    ("CN(Cc1c(C(=O)N/N=C/c2ccc(F)cc2)nnn1-c1nonc1N)C1CCCCC1", "false (0)"),
    ("CC12CCC(C(=O)NCc3ccc(Cl)cc3)(OC1=O)C2(C)C (stereo not given)", "false (0)"),
    ("Cc1ccc(S(=O)(=O)N2CCC(=O)N(C(COCc3cccc(C)c3)Cc3ccccc3)CC2)cc1 (stereo not given)", "false (0)"),
    ("CCCCn1c(NS(=O)(=O)c2ccccc2)c(C(=O)OCC)c2nc3ccccc3nc21", "true (1)"),
    ("Cc1c(C(=O)O)sc2nc(CSc3ncc(C(F)(F)F)cc3Cl)[nH]c(=O)c12", "true (1)"),
    ("CCCCN(Cc1cc2cc(OC)ccc2[nH]c1=O)S(=O)(=O)c1ccc(C)cc1", "true (1)"),
    ("O=C(CC1Nc2cccc3cccc(c23)NC1=O)Nc1ccccc1 (stereo not given)", "true (1)"),
    ("CCOc1ccccc1CNc1ccc(O)cc1", "true (1)"),
    ("CCc1nnc(NS(=O)(=O)c2ccc(NC(=S)NC(=O)/C=C/c3ccc(C(C)C)cc3)cc2)s1", "true (1)"),
    ("Cc1cc(C)nc(N=Nc2c(O)n(Cc3ccc(Cl)cc3)c3ccccc23)n1", "false (0)"),
    ("Oc1ccc(N=Cc2ccc(OCc3ccccc3)cc2)cc1", "true (1)"),
    ("O=S(=O)(Nc1nc2ccccc2nc1Nc1ccc(N2CCOCC2)cc1)c1cc(Cl)ccc1Cl", "false (0)"),
    ("CS(=O)(=O)N1CCN(c2ccc([N+](=O)[O-])c(SCc3ccco3)c2)CC1", "false (0)"),
    ("CCC1=Nc2cc(C(=O)O)ccc2Sc2ccccc21", "false (0)"),
    ("NS(=O)(=O)c1ccc(NC(=O)c2cccc(N3C(=O)c4ccccc4C3=O)c2)cc1", "true (1)"),
    ("CC(NC(=O)Nc1ccc(O)cc1)(C(F)(F)F)C(F)(F)F", "false (0)"),
    ("Nc1ccc(S(=O)(=O)Nc2ccc(S(N)(=O)=O)cc2)cc1", "false (0)"),
    ("CC1(C)Cc2c(sc(/N=C/N3CCCCCC3)c2C#N)C(C)(C)N1", "false (0)"),
    ("C[N+]1(CCNC(=O)/C=N/O)CCCCC1", "false (0)"),
    ("O=C(Nc1ccc(Oc2ccsc2C(=O)O)cc1)c1ccccc1F", "false (0)"),
    ("C=CCn1c(NS(=O)(=O)c2ccccc2)c(S(=O)(=O)c2ccc(C)cc2)c2nc3ccccc3nc21", "true (1)"),
    ("Cc1ccc(-n2cccn2)c([C@@H]2C[C@H]3CN(C)C(=O)[C@]34CCCN24)c1", "false (0)"),
    ("Cc1c(Cc2ccccc2)c(=O)oc2c(C)c(OCC(=O)N[C@@H](Cc3ccccc3)C(=O)O)ccc12", "true (1)"),
    ("CC(C)(C)c1cc(-c2csc(Nc3ccccc3)[n+]2Cc2ccc(C(=O)O)cc2)cc(C(C)(C)C)c1O", "true (1)"),
    ("COC/C=C/C1=CC2=CC(=O)C(C)(OC(=O)c3ccco3)C(=O)C2=CO1 (stereo not given)", "true (1)"),
    ("CSc1ccccc1C(=O)NC(C)c1ccc(-n2ccnc2)cc1 (stereo not given)", "false (0)"),
    ("CCCCNc1c2c3c(cccc3n(C)c1=O)C(=O)c1ccccc1-2", "false (0)"),
    ("Oc1ccc(N=Cc2sc3ccccc3c2Cl)cc1", "true (1)"),
]

* * *

Target: E3 ubiquitin-protein ligase SIAH1 (Homo sapiens)
Test: inhibitors of Siah-1 ligand interaction – biochemical, TR-FRET, dose response (AID 2141)
Details: TR-FRET biochemical assay, Siah-1 binding
The source made the active and inactive calls. How the calls were made is not given here.
Classes used: active, inactive

# COMPOUND, GROUP
measured = [
    ("CC[n+]1c(/C=C/N(C)c2ccccc2)sc2ccc(Cl)cc21", "inactive"),
    ("Cc1cc(Cl)ccc1NC(=O)CN1CCC(C(O)(c2ccccc2)c2ccccc2)CC1", "inactive"),
    ("COC(=O)C1C=C2c3cccc4[nH]cc(c34)CC2N(C)C1 (stereo unspecified)", "active"),
    ("O=C(Nc1cc([N+](=O)[O-])ccc1N1CCOCC1)c1cccs1", "inactive"),
    ("N#C/C(=C\\c1c(F)cccc1Cl)C(=O)NC1CC1", "inactive"),
    ("Nc1c(C(=O)NCc2ccco2)c2nc3ccccc3nc2n1CCc1ccccc1", "active"),
]

* * *

Molecular target: E3 ubiquitin-protein ligase SIAH1 (Homo sapiens) (UniProt Q8IUQ4)
Test: inhibitors of Siah-1 ligand interaction – biochemical, TR-FRET, dose response (AID 2141)
Conditions: TR-FRET biochemical assay, Siah-1 binding
The source made the active and inactive calls. How the calls were made is not given here.
Classes used: 1 for active, 0 for inactive

# COMPOUND, GROUP
rows = [
    ("Oc1c(Br)cc(Br)cc1CNc1ccc(F)cc1", 0),
    ("Cc1cc2cc(CNC(=O)c3ccc(S(=O)(=O)N4CCCCC4)cc3)ccc2n1C", 1),
    ("CN(C)c1cccc2c(C=C(C#N)C#N)ccc(N(C)C)c12", 0),
    ("COc1ccc(CNC(=S)Nc2cc(OC)ccc2OC)cc1", 0),
    ("CC1CCN(C(=O)C2CCC(C)(C(=O)O)C2(C)C)CC1 (stereo not drawn)", 0),
    ("O=C(O)c1cc(Cl)c(Cl)cc1C(=O)Nc1cccc2cccnc12", 1),
    ("CCCCn1c(NC(=O)c2ccc(Br)o2)c(C(=O)OCC)c2nc3ccccc3nc21", 1),
    ("O=C(NCc1c(F)cccc1F)c1cc(COc2c(F)cccc2F)on1", 0),
]
